Values were extracted from patent US20250042848A1.

This section presents molecules with their documented ED50 MES values.
System: maximal electroshock seizures in mice
Experiment: Maximal electroshock seizure test (MES)
Assay type: in vivo
Conditions: 2.0 h after i.p. administration
Give a bare numeral; the unit mg/kg is implied.

See these solved cases before continuing.
Problem: Given the molecule [2H]c1c([2H])c([2H])c(C([2H])([2H])NC(=O)[C@@H](C)N2C(=O)C([2H])([2H])C([2H])([2H])C2=O)c([2H])c1[2H] [d11-(R)-6] , what is its reported ED50 MES?
Result: 33.8

Problem: Given the molecule [2H]C1([2H])C(=O)N([C@H](C)C(=O)NCc2ccccc2)C(=O)C1([2H])[2H] [d4-(R)-1] , what is its reported ED50 MES?
Result: 50.1

Problem: Given the molecule C[C@H](C(=O)NCc1ccccc1)N1C(=O)CCC1=O [Compound 1, reference compound] , what is its reported ED50 MES?
Result: 95.3

New cases:
Problem: Given the molecule [2H]C1([2H])C(=O)N([C@H](C)C(=O)NCc2ccccc2F)C(=O)C1([2H])[2H] [d4-(R)-4] , what is its reported ED50 MES?
Result: 25.3

* * *

Test system: motor coordination of mice
Assay: Rotarod test (motor coordination, acute neurotoxicity)
Format: in vivo
Conditions: 0.5 h after i.p. administration, in mg/kg
This section presents compounds with their documented TD50 Rotarod values.
Field format: numeric only.

Problem: Given the compound [2H]C1([2H])C(=O)N([C@H](C)C(=O)NCc2ccccc2F)C(=O)C1([2H])[2H] [d4-(R)-4] , what is its reported TD50 Rotarod?
Result: 127.2

Problem: Given the compound [2H]C1([2H])C(=O)N([C@H](C)C(=O)NCc2ccccc2)C(=O)C1([2H])[2H] [d4-(R)-1] , what is its reported TD50 Rotarod?
Result: 176.7

New cases:
Problem: Given the compound [2H]c1c([2H])c([2H])c(CNC(=O)[C@@H](C)N2C(=O)C([2H])([2H])C([2H])([2H])C2=O)c([2H])c1[2H] [d9-(R)-2] , what is its reported TD50 Rotarod?
Result: 165.4

Problem: Given the compound C[C@H](C(=O)NCc1ccccc1)N1C(=O)CCC1=O [Compound 1, reference compound] , what is its reported TD50 Rotarod?
Result: 236.2
